Target: TLR10 (Homo sapiens)
Sequence (Q9BXR5 20-576): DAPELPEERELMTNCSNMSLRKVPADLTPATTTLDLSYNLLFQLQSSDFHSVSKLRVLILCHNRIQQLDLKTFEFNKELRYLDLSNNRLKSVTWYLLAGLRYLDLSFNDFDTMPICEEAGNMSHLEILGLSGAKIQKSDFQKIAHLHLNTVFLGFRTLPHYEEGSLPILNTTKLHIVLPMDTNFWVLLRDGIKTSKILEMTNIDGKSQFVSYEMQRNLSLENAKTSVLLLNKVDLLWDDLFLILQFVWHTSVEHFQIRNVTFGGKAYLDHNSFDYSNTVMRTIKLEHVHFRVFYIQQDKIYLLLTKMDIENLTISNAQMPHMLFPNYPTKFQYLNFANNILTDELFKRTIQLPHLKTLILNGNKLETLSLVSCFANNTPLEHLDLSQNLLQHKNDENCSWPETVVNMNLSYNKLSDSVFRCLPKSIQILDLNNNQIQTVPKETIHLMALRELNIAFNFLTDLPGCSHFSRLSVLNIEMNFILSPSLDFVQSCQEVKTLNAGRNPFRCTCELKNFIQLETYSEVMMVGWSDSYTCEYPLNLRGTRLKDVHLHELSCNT
Test: mRNA display affinity selection against TLR10, NGS abundance
Format: binding
Set-up: Chimera protein (extracellular domain, amino acid 20-576;); Fc (chimera); purchased R&D system #6619-TR-050
Settings: TLR10 selection pulldown (+); Top100 selection hits, NGS
Provide the reported Raw reads of each item.

Would you please look over these solved cases?
SIMFALQQKLLF : 389
SIKFVFQGKLAI : 45

We now examine a further sequence.
Request: Can you look up the measured Raw reads of `SIEGMHVVIV` for me?
Response: 21
